target: Adenosine receptor A2a (Homo sapiens, UniProt P29274); test: Displacement of [3H]CGS21680 from human adenosine A2A receptor expressed in HEK293 cells at 10 uM after 60 mins by […]; type: cell-based
Sequence (P29274 whole entry): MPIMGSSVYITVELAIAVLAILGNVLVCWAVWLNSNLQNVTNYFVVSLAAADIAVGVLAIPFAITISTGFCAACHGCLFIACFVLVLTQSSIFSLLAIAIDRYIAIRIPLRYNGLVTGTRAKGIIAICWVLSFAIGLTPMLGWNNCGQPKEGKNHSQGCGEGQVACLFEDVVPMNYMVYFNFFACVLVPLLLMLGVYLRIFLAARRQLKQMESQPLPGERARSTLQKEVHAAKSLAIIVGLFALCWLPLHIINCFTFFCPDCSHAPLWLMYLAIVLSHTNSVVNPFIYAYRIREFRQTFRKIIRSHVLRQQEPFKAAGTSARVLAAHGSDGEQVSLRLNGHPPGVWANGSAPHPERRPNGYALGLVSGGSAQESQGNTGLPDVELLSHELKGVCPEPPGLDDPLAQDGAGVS
# key: entry, value: inhibition
Result Type: inhibition (%)

Smiles String	Result Type	Test Value
CCCCC#Cc1nc(NCc2cccc(F)c2)c2ncn([C@@H]3OC[C@@H](O)[C@H]3O)c2n1	inhibition	25
CCCCC#Cc1nc(NCc2cccc(F)c2)c2ncn([C@@H]3SC[C@@H](O)[C@H]3O)c2n1	inhibition	46
CCCCC#Cc1nc(NCc2cccc(I)c2)c2ncn([C@@H]3OC[C@@H](O)[C@H]3O)c2n1	inhibition	32
CCCCC#Cc1nc(NCc2cccc(Br)c2)c2ncn([C@@H]3OC[C@@H](O)[C@H]3O)c2n1	inhibition	27
CCCCC#Cc1nc2c(N)ncnc2n1[C@@H]1OC[C@@H](O)[C@H]1O	inhibition	27.2
CCCCC#Cc1nc(NCc2cccc(Cl)c2)c2ncn([C@@H]3OC[C@@H](O)[C@H]3O)c2n1	inhibition	42
CCCCCCc1nc2c(N)ncnc2n1[C@@H]1OC[C@@H](O)[C@H]1O	inhibition	5.8
CCCC/C=C/c1nc2c(N)ncnc2n1[C@@H]1OC[C@@H](O)[C@H]1O	inhibition	27.3
